Give α-helix content of apo-hTf for every item shown.
molecular target: UniProt P02787; test: Far-UV circular dichroism titration of apo-hTf, secondary structure content; settings: compound concentration 1.6 (M)
Sequence (P02787 20-698): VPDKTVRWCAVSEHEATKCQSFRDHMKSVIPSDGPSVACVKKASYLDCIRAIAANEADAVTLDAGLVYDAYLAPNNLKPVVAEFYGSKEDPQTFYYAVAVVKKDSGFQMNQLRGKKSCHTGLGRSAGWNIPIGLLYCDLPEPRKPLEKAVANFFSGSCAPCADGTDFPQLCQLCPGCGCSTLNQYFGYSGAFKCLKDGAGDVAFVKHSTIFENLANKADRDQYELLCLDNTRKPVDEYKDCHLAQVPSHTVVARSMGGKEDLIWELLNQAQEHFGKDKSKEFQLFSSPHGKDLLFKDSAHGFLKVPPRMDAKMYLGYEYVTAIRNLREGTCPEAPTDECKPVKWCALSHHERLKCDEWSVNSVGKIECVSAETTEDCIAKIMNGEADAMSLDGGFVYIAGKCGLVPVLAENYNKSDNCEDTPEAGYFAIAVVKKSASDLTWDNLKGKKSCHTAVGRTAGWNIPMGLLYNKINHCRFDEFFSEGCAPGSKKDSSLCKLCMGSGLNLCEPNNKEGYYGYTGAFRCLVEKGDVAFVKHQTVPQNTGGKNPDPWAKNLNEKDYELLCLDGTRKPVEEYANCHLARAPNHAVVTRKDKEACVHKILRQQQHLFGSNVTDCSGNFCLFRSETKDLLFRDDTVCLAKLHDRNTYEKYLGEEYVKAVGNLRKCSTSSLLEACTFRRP
The response must be a number in % with no trailing unit.

Measured α-helix content of apo-hTf (UniProt P02787), entry [Cl-].[Cl-].[Hf+4].c1cc[cH-]c1.c1cc[cH-]c1 [Cp2HfCl2] : 29.1

// returns α-helix content of apo-hTf for [Cl-].[Cl-].[Mo+4].c1cc[cH-]c1.c1cc[cH-]c1 [Cp2MoCl2] with UniProt P02787; value = 27.1

The compound [Cl-].[Cl-].[Ti+4].c1cc[cH-]c1.c1cc[cH-]c1 [Cp2TiCl2, titanocene dichloride] , tested on UniProt P02787, showed α-helix content of apo-hTf of 28.8

src = paper PMC7668563
